Source: ChEMBL document CHEMBL1136005

target: Dual specificity mitogen-activated protein kinase kinase 6 (Homo sapiens, UniProt P52564); assay: Inhibition of Mitogen activated protein kinase kinase 6
Sequence (P52564 whole entry): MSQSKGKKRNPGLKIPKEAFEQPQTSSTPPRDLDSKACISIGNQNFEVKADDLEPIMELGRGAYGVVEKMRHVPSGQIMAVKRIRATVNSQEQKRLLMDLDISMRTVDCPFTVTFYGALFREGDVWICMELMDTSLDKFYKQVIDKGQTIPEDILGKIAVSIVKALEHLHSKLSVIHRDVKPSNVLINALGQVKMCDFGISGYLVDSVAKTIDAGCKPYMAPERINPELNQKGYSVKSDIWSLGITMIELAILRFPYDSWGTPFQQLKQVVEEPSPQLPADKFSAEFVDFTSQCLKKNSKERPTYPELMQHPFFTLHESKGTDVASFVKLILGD
The entries below are paired with their reported IC50.
Assay Readout: IC50

Structure Notation | Observed Value
COc1cc2ncnc(N3CCN(/C(S)=N\Cc4ccccc4)CC3)c2cc1OC | > 30 µM
COc1cc2ncnc(N3CCN(/C(S)=N\Cc4ccc5c(c4)OCO5)CC3)c2cc1OC | > 30 µM

====

molecular target: Dual specificity mitogen-activated protein kinase kinase 3 (Homo sapiens); assay: Inhibition of Mitogen activated protein kinase kinase 3
Sequence (P46734 whole entry): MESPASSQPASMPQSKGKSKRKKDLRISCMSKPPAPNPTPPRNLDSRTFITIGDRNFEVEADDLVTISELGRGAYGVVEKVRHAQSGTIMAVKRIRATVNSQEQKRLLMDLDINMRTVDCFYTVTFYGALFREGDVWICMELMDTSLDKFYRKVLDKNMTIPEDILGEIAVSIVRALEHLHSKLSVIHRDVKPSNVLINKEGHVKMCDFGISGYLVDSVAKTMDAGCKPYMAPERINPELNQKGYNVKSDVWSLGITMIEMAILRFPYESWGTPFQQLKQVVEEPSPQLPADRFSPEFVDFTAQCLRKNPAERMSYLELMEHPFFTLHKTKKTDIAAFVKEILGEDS
Assay Readout: IC50

Structure Notation | Observed Value
COc1cc2ncnc(N3CCN(/C(S)=N\Cc4ccccc4)CC3)c2cc1OC | > 30 µM

====

molecular target: Platelet-derived growth factor receptor (Homo sapiens, UniProt P09619+P16234); assay: Concentration required for 50% inhibition against autophosphorylation of Platelet-derived growth factor receptor beta in intact cells using a two site ELISA
pIC50: −log10 of the molar value.

Molecule | Cmp | pIC50
COc1cc2ncnc(N3CCN(/C(S)=N\CC4CCCO4)CC3)c2cc1OC (stereo not given) | < | 4.52
COc1cc2ncnc(N3CCN(C(=O)Nc4ccccn4)CC3)c2cc1OC | < | 5.00
COc1cc2ncnc(N3CCN(C(=S)NCc4ccccc4Cl)CC3)c2cc1OC | = | 6.01
COc1cc2ncnc(N3CCN(C(=O)N(C)c4ccc(Br)cc4)CC3)c2cc1OC | < | 4.52
COc1cc2ncnc(N3CCN(C(NCc4ccc(Cl)cc4)=C(C#N)C#N)CC3)c2cc1OC | = | 5.28
COc1cc2ncnc(N3CCN(/C(S)=N\Cc4ccc(Oc5ccccc5)cc4)CC3)c2cc1OC | = | 6.02
COc1cc2ncnc(N3CCN(/C(S)=N\Cc4cccnc4)CC3)c2cc1OC.Cl.Cl | = | 6.55
COc1cc2ncnc(N3CCN(C(=NC#N)NCc4ccc(C)cc4)CC3)c2cc1OC | = | 6.47
COc1cc2ncnc(N3CCN(C(=O)NCC(=O)c4ccc(Br)cc4)CC3)c2cc1OC | = | 6.85
COc1cc2ncnc(N3CCN(C(=S)N[C@H](C)c4ccccc4)CC3)c2cc1OC | < | 4.52

====

assay: Plasma concentration was determined after 1 hr at a dose 30 mg/kg administered orally to rat-15; assay type: ADME, organism-based; parameters: dose 30 mg/kg, route oral; conditions: po

Structure Notation | concentration at 1 h
COc1cc2ncnc(N3CCN(C(=S)NCc4ccco4)CC3)c2cc1OC | 3000 ng/mL

====

test: Plasma concentration was determined after 8 hr at a dose 30 mg/kg administered orally to rat-12; type: ADME, organism-based; set-up: dose 30 mg/kg, route oral; conditions: po

Structure Notation | concentration at 8 h / ng/mL
COc1cc2ncnc(N3CCN(C(=O)Nc4ccsc4)CC3)c2cc1OC | 700

====

assay: Plasma concentration was determined after 8 hr at a dose 30 mg/kg administered orally to rat-6; type: ADME, organism-based; parameters: dose 30 mg/kg, route oral; settings: po
Assay Readout: concentration at 8 h

Structure Notation | Observed Value
COc1cc2ncnc(N3CCN(C(=S)NCc4ccc(Cl)cc4)CC3)c2cc1OC | < 100 ng/mL

====

experiment: Plasma concentration was determined after 1 hr at a dose 30 mg/kg administered orally to rat-12; assay type: ADME, organism-based; parameters: dose 30 mg/kg, route oral; settings: po

Structure Notation | concentration at 1 h, ng/mL
COc1cc2ncnc(N3CCN(C(=O)Nc4ccsc4)CC3)c2cc1OC | 7700
